Source listed as PubChem BioAssay AID2129.

- EXPERIMENTAL_TARGET: Bcl-2-like protein 1 (Homo sapiens) (UniProt Q07817)
- Sequence (Q07817 whole entry, looked up): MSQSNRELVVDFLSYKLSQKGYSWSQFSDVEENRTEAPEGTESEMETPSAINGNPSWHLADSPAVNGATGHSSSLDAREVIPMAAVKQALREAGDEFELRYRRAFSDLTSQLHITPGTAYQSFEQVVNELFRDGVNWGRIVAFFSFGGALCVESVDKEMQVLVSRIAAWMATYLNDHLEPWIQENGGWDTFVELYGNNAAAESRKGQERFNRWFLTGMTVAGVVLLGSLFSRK
- ASSAY_REMARKS: Bcl-xL/Bim BH3 interaction blockers – biochemical, fluorescence polarization, HTS, primary screen (AID 2129);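 also: 0% = DMSO wells and 100% = unlabeled Bim-BH3 peptide competitor; inhibitors lower millipolarization by displacing the labeled peptide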
- ASSAY_CONTEXT: GST-Bcl-xL / FITC-Bim BH3 peptide fluorescence polarization; at 10.9 µM; hits give high values
In all, about 320,000 compounds went through this assay and about 2,200 (0.69%) were called active. For the sample, actives were picked, then their nearest neighbours and some compounds at random.
Below: a set of entries, each annotated with reported inhibition.
MEASURED_QUANTITY: inhibition (%)

1) COC(=O)C1=C(O)/C(=C/c2ccc(OCC(=O)Nc3ccccc3)cc2)N=C1C | 0.76
2) COc1ccc(N2CC(C(=O)NCCN3C(=O)S/C(=C\c4cccnc4)C3=O)CC2=O)c(OC)c1 (configuration not stated) | 149
3) O=C(COC(=O)c1cccc(Br)c1)Nc1cccc2c1C(=O)c1ccccc1C2=O | 13.1
4) O=C(Nc1nnc(SCc2ccccc2Cl)s1)c1cccc([N+](=O)[O-])c1 | 9.99
5) O=C(COC(=O)Cn1cnc2ccccc21)Nc1cccc2c1C(=O)c1ccccc1C2=O | 137
6) COc1ccc(CNC(=O)c2c[nH]c3c(OC)cc(OC)cc3c2=O)cc1 | 1.75
7) CS(=O)(=O)N(CC(=O)NCc1ccco1)c1ccc2c(c1)OCO2 | 5.67
8) Cc1ccc(SCC(=O)NNC(=O)c2ccc(S(C)(=O)=O)cc2)cc1 | 1.39
9) Cc1c(C)c(C)c2[nH]c(=S)[nH]c2c1C | -44
10) C=CCNc1nnc(C)c2ccccc12 | 1.09
11) CCOC(=O)/C(=C\c1ccc([N+](=O)[O-])cc1)C(=O)c1cc(C(C)=O)c(Nc2ccccc2)s1 | 1.23
12) COc1ccc(S(=O)(=O)Nc2cc(C)on2)cc1NC(C)=O | 3.59
13) CC(C)(C)n1ncc2c(=O)n(Cc3ccc(Cl)cc3)cnc21 | 4.43
14) Cc1c(-c2ccccc2)cn2c1-c1ccc(C)n1CC2 | 31.6
15) COCCNc1nnc(SCC(=O)NNC(=O)c2ccco2)s1 | 4.35
16) CCOC(=O)N1CCN(S(=O)(=O)c2cc(Br)cc3c2N(C(=O)C2CC2)CC3)CC1 | -4.43
17) Cc1ccc(NC2CCCN(C(=O)CCC3(C)CC3)C2)cc1C (configuration not stated) | 4.16
18) COC(=O)c1cccc(N2C(=O)C3C4C=CC(CC4)C3C2=O)c1 (configuration not stated) | 2.84
19) CN(C(=O)CSc1nnc(-c2ccc3c(c2)OCO3)o1)C1CCS(=O)(=O)C1 (configuration not stated) | 3.5
20) CC(=O)N1CCc2c(sc(NC(=O)CCS(=O)(=O)c3ccc(C)cc3)c2C(N)=O)C1 | 6.13
21) CC(=O)c1cnn(-c2cc(Oc3ccc(F)cc3)ncn2)c1C | 2.24
22) CCOC(=O)c1c(-c2ccccc2)oc2cc(Br)c(O)c(C=O)c12 | 11.5
23) CCCc1c(C)nc2c(Br)cccc2c1Cl | 2.17
24) C=CCNc1nnc(SCC(=O)N2CCCCC2)c2ccccc12 | 108
25) O=c1[nH]c(=S)[nH]c2[nH]c(=S)[nH]c12 | 44
26) Cc1cccc(OCC(=O)NCC(=O)N/N=C/c2ccc(N(C)C)cc2)c1 | 2.63
27) Fc1c(F)c(C(F)(F)F)c(F)c(F)c1N1CCN(c2ccc3nnc(C(F)(F)F)n3n2)CC1 | 3.95
28) O=C(Cn1cnc2ccccc21)Nc1ccccc1-c1ccccc1 | 7.35
29) CCOC(=O)C1=C(O)/C(=C/c2cc(C)n(-c3ccccc3)c2C)N=C1C | 35.6
30) c1ccc(CSc2nnc(-c3ccco3)c(-c3ccco3)n2)cc1 | 33.4
31) CCc1cccc(C)c1N(C(=O)Cn1c(CO)nc2ccccc21)C(C)COC (configuration not stated) | 58.5
32) CCOc1ccc2nc(N3CCCN(C(=O)Nc4ccccc4C)CC3)c(C#N)cc2c1 | 46.6
